test system: K-562 leukemia; test: NCI tumour cell line growth inhibition, 48 h
recorded.metric: TGI

The cases that follow already have their TGI on record.
COc1cc(/C=C/C(=O)N[C@@H]2C(=O)N3[C@@H]2SC(C)(C)[C@@H]3C(=O)O)cc(OC)c1OC : > 100 µM
O=C1C(Cl)=C(Nc2cccc(O)c2)C(=O)N1c1cccc(Cl)c1 : 79 µM
O=S(=O)(NCCCNc1cc(-c2cn(-c3ccccc3)nc2-c2cccc(O)c2)ccn1)c1cccc2ccccc12 : 4.48 µM
Oc1cccc(Cn2c(-c3cccc(O)c3O)nc3ccccc32)c1O : > 100 µM
Nc1nc(N)c2nc(-c3ccco3)cnc2n1 : > 100 µM

Query :: Which TGI is reported for this molecule? COc1ccc(Nc2nc(N)c(C(=O)c3ccccc3)s2)cc1
Result :: > 100 µM

Query :: Reported TGI for COc1ccccc1N=N/C(=N/NC(=O)c1ccc(C)cc1)c1ccc(N(CCC#N)CCC#N)cc1OC : what is it?
Result :: > 100 µM

Query :: Quick check: TGI of C/C(=N\O)c1cccc(Nc2nc3ccccc3c3occc23)c1 ?
Result :: 70.5 µM

Query :: Bench note: what TGI did CC(=O)Nc1ccc2oc(=O)c3ccccc3c2c1 show?
Result :: > 100 µM

Query :: I am curious: what TGI value has been reported for CSc1nncc2[nH]cnc12 ?
Result :: > 100 µM

Query :: // returns reported TGI for input NC(Cc1c[nH]c2ccccc12)C(=O)O (stereo unspecified)
Result :: > 189 µM

Query :: Request the reported TGI associated with COc1ccc(Cl)cc1NC(=O)c1c(NC(=O)C(F)(F)C(F)(F)F)sc2c1CCCCC2
Result :: > 100 µM

Query :: # get_value(readout='TGI', item= CC[C@@]1(O)C(=O)OCc2c1cc1n(c2=O)Cc2c-1nc1ccccc1c2/C=N\NC(=O)C(N)Cc1cnc[nH]1 (stereo partly specified) )
Result :: > 100 µM

Query :: Form field: reported TGI of Cc1ccc(NC(=O)CC/C(CC(=O)c2ccc(Cl)cc2)=N\NC(=O)C(=O)NN)cc1C
Result :: > 100 µM

Query :: Tell me the measured TGI of O=c1c(O)c(-c2cc(O)c(O)cc2O)oc2cc(O)c(C3OC(CO)C(O)C(O)C3O)c(O)c12 (stereo unspecified) , please.
Result :: > 100 µM

Query :: Look up TGI for this molecule: CC(C)NC(=O)OCc1c(COC(=O)NC(C)C)c(-c2ccc[n+](COC(=O)C3CC3)c2)n2c1CCC2
Result :: > 100 µM

Query :: Entry O=C(/C=C/c1cccs1)c1cccc(C(=O)/C=C/c2cccs2)n1 : reported TGI = ?
Result :: > 100 µM

Query :: Give the measured TGI of COc1ccc(CCc2ccc(O)c(C(=O)O)c2)cc1OC .
Result :: > 100 µM

Query :: I'd like to know its TGI. The molecule in question is Cc1ccc(/C=N/NC2=NCCN2)s1
Result :: > 100 µM

Query :: Value lookup for TGI; key = c1ccc2c(c1)nnn2CNc1ccc(N2CCOCC2)cc1
Result :: > 100 µM

Query :: Reported TGI, molecule COc1ccc(-c2csc(NC(=O)N3CCN(c4cc5c(cc4F)c(=O)c(C(=O)O)cn5C4CC4)CC3)n2)cc1 : ____
Result :: 14.9 µM

Query :: Item under review: NCCCc1c(-c2ccccc2)nc(N)[nH]c1=O . Reported TGI?
Result :: > 100 µM

Query :: Requested field: TGI. Item: CC(C)CC1[C@@H](OCc2ccccc2)COS(=O)(=O)N1Cc1ccccc1 (stereo partly specified)
Result :: > 100 µM

Query :: Give the measured TGI of O=C(NC1CCN(Cc2ccccc2)CC1)c1cc(C(=O)NC2CCN(Cc3ccccc3)CC2)cc(C(=O)NC2CCN(Cc3ccccc3)CC2)c1 .
Result :: > 50 µM

Query :: # TGI lookup, item COC1OC(CBr)C(OC(c2ccccc2)(c2ccccc2)c2ccccc2)C(OC(c2ccccc2)(c2ccccc2)c2ccccc2)C1OC(c1ccccc1)(c1ccccc1)c1ccccc1 (stereo unspecified)
Result :: > 100 µM

Query :: Would you kindly share the measured TGI for ClC1(c2ccccc2)c2ccc(Br)cc2-c2cc(Br)ccc21 ?
Result :: > 100 µM

Query :: Endpoint output: TGI of CCOC(=O)C(C)(C)/C=C\C(Cl)=C(Cl)Cl . Value?
Result :: > 100 µM

Query :: Entry COc1ccc(-n2c3c(c4c(CN(C)C)c(O)ccc42)C(=O)c2ccccc2C3=O)cc1 has what TGI?
Result :: 4.62 µM
